# System: SK-OV-3 ovarian
# assay: NCI tumour cell line growth inhibition, 48 h
TGI: recorded values

Examples with their reported TGI follow.
Oc1ccc(O)c(-n2cccn2)c1	> 100 µM
O=C(Nc1ccc(Cl)cc1)c1cc(NCc2cc(O)ccc2O)ccc1O	60.7 µM
Cc1ccc([N+](=O)[O-])cc1NC(=O)C(=O)Cc1nc2ccc(C(=O)c3ccccc3)cc2[nH]c1=O	> 100 µM

INPUT: Indicate the recorded TGI value for this molecule: O=C(N/C(=C\c1cccc([N+](=O)[O-])c1)c1nc2c3c(ccc2[nH]1)C(=O)c1ccccc1C3=O)c1ccccc1
OUTPUT: 78 µM

###

# Tested on: SF-268 CNS
# assay: NCI tumour cell line growth inhibition, 48 h
experimental_readout: TGI

CCOC(=O)C1=NN(c2ccc(C)cc2)C2(c3ccccc3)C=C(c3ccccc3)N(C)CCN12 (stereo not given)	> 100 µM

INPUT: Annotate the molecule COC(=O)[C@H](Cc1ccccc1)NC(=O)OCC1OC(n2cc(C)c(=O)[nH]c2=O)CC1N=[N+]=[N-] (stereo not given in full) with its measured TGI.
OUTPUT: > 100 µM

INPUT: Identify the reported TGI for the following entry. N[C@@H](Cc1c[nH]c2ccccc12)C(=O)NC1CCN(Cc2c[nH]c3ccc(Cl)cc23)CC1
OUTPUT: 22 µM

###

Below, each of the compounds is paired with its reported TGI value.
# System: MALME-3M melanoma
# assay: NCI tumour cell line growth inhibition, 48 h

Some compounds with known TGI results, for comparison:
Cc1cc2c3c(nc2c2cc[nH]c(C)c12)CCCC3	2.74 µM
CCCC(=O)Oc1ccc(/C=N/NC(N)=S)nc1	> 100 µM
C/C(=N\N)C(CN1CCOCC1)C(c1ccccc1)c1c(O)c2ccccc2oc1=O (centres undefined)	> 100 µM

INPUT: Please report the measured TGI for O=C(N/N=C\c1ccc(N(CCCl)CCCl)cc1)c1cccnc1
OUTPUT: > 100 µM

INPUT: Retrieve TGI measured for C[n+]1c2ccccc2n2c3ccccc3c(NCc3ccco3)c(C#N)c21 and print it.
OUTPUT: 7.59 µM

INPUT: Identify TGI associated with the compound COC(=O)c1ccc(Oc2nc3ccc(C(F)(F)F)cc3nc2-c2ccccc2)cc1
OUTPUT: > 100 µM

###

# Tested on: DMS 273 small cell lung
# assay: NCI tumour cell line growth inhibition, 48 h
Recorded TGI for the following molecules

Example results:
C[N+]1(CCNP(=S)(NCC[N+]2(C)Cc3c(ccc4c3OCO4)C3C2c2cc4c(cc2C[C@@H]3O)OCO4)NCC[N+]2(C)Cc3c(ccc4c3OCO4)C3C2c2cc4c(cc2C[C@@H]3O)OCO4)Cc2c(ccc3c2OCO3)C2C1c1cc3c(cc1C[C@H]2O)OCO3 (some centres undefined)	< 0.00191 µM
[N-]=[N+]=C1C(=O)C2CC3CC1CC2C3 (centres undefined)	> 100 µM
CCCCN(C)CC(C(C)=O)C(c1ccccc1)c1c(O)c2ccccc2oc1=O (centres undefined)	> 100 µM

INPUT: // fetch TGI given entry CCCC[n+]1ccn(-c2nc3ccccc3n2C)c1
OUTPUT: > 100 µM

###

# Tested on: ACHN renal
# assay: NCI tumour cell line growth inhibition, 48 h
experimental_readout: GI50

COc1cc(/C=C2\C[C@H]3[C@@H]4CC=C5C[C@@H](O)CC[C@]5(C)[C@H]4CC[C@]3(C)[C@H]2O)ccc1OCCN1CCCCC1	0.706 µM
O=C1/C(=C/c2ccc(Cl)cc2)N=C(c2ccccc2)N1c1cc(C(F)(F)F)ccc1Cl	22.1 µM
COc1ccc(NC(=O)c2ccc(C(F)(F)F)nc2Nc2ccc(Cl)cc2C)cc1Cl	5.36 µM

# ---- query compound ----
INPUT: Give me measured GI50, please, for this compound: COc1cc(-c2n/c(=C\c3c(O)[nH]c4ccccc34)cc3c2=Nc2ccccc2-3)ccc1F
OUTPUT: 8.09 µM

###

# Tested on: OVCAR-8 ovarian
# assay: NCI tumour cell line growth inhibition, 48 h; in the data active means GI50 below about 0.43 µM; inactive means the rest
Outcomes you can answer with include only these: active, inactive

Answered examples (4):
O=C(N/N=C/c1ccc([N+](=O)[O-])cc1)c1ccccc1Nc1ccnc(C(F)(F)F)c1	inactive
C/C(COc1ccc2oc(-c3ccccc3)cc(=O)c2c1)=N\O	inactive
C#Cc1cccc(Nc2nc(C)nc3cc(NC(=O)CCl)ccc23)c1	inactive
O=C1/C(=C/c2ccc(Cl)cc2)N=C(c2ccccc2)N1c1cc(C(F)(F)F)ccc1Cl	inactive

INPUT: Returns: the outcome recorded for CCCCCCCC(=O)Nc1nc2[nH]c(CN3CCN(Cc4cccc(I)c4)CC3)c(CN3CCN(Cc4cccc(I)c4)CC3)c2c(=O)[nH]1 in this assay.
OUTPUT: inactive

INPUT: Given Cn1cnc(SC2=CC(=O)C=C3S[C@H]4C[C@@]23c2c(c(O)c3c5c2=NCCC=5C=N3)N4)c1CC(N)C(=O)O (stereo partly drawn) , state the outcome it received in this test.
OUTPUT: inactive

INPUT: So what was the verdict on Cc1cc(C)c([I+]c2c(C)cc(C)cc2C)c(C)c1 in this test?
OUTPUT: active

INPUT: Record lookup: outcome of this test for O=C(Nc1ccc(Cl)cc1)c1cc(NCc2cc(O)ccc2O)ccc1O ?
OUTPUT: inactive

###

# Test system: SR leukemia
# assay: NCI tumour cell line growth inhibition, 48 h
Lab note: anything with TGI at or over 50 µM counts as rule met; the rest go in rule not met.

As a guide, the following entries are already answered.
O=P(O)(O)c1ccc2c(c1)OCCOCCOCCOCCO2	rule met
COc1c(C)c(C/C=C(\C)CC/C=C(\C)CC/C=C(\C)CC/C=C(\C)CCC=C(C)C)c(OC)c(OC)c1OC	rule met
Cc1cn(C(CO)OC(CO)CN(O)C2C3CC4CC(C3)CC2C4)c(=O)[nH]c1=O (centres undefined)	rule met
CCOc1cc2c(cc1O)C=C[C@@H]1[C@@H]2CC[C@]2(C)[C@@H](O)CC[C@@H]12	rule not met
CC(C)(C)c1cc[n+](C[n+]2ccc(C(C)(C)C)cc2)cc1	rule met
NC1=Nc2ccccc2Sc2nccn21	rule met

# next compound below
INPUT: Given CCCC(=O)Oc1c2ccsc2c(OC(=O)CCC)c2ccsc12 , state whether its TGI is at least 50 µM.
OUTPUT: rule not met

###

# Test system: RXF 393 renal
# assay: NCI tumour cell line growth inhibition, 48 h
Measured GI50, listed per entry.

// known answers, use as guide
C[C@]1(c2nc3c(C(N)=O)cccc3[nH]2)CCCN1	> 90.3 µM
CCCCCCCC(=O)Nc1nc2[nH]c(CN3CCN(Cc4cccc(I)c4)CC3)c(CN3CCN(Cc4cccc(I)c4)CC3)c2c(=O)[nH]1	0.78 µM
Cn1cnc(SC2=CC(=O)C=C3S[C@H]4C[C@@]23c2c(c(O)c3c5c2=NCCC=5C=N3)N4)c1CC(N)C(=O)O (stereo not given in full)	10.6 µM
COc1ccc(-c2oc3ncnc(N)c3c2-c2ccc(NC(=O)Nc3cc(C(F)(F)F)ccc3F)cc2)cc1	0.473 µM
CCCCCCCCCCCCCCCCCC1=NC(C)(C)CN1C(C)(C)CO	1.11 µM
N#Cc1c(N)c(C(=O)c2ccc3c(c2)OCCO3)n2c1CCCC2	2.29 µM
COc1cc(/C=C2\C(=O)Nc3ccc(Cl)cc32)cc(OC)c1OC	1.82 µM
C/C(COc1ccc2oc(-c3ccccc3)cc(=O)c2c1)=N\O	> 100 µM

INPUT: Find GI50 for COc1nc2c(c(=O)n1C)CN(c1ccccc1)C(=O)CN2C on RXF 393 renal and write it down.
OUTPUT: 54.3 µM

INPUT: Report GI50 from RXF 393 renal testing of CC1(C)CC[C@]2(C(=O)NCCNCCN)CC[C@]3(C)C(=CC[C@@H]4[C@@]5(C)CCC(=O)C(C)(C)[C@@H]5CC[C@]43C)[C@@H]2C1
OUTPUT: 1.57 µM

INPUT: // fetch GI50 for CCOc1ccc(Nc2ccnc3cc(Cl)ccc23)cc1 ; system: RXF 393 renal
OUTPUT: 72.3 µM

INPUT: Consider the compound O=C1/C(=C/c2ccc(Cl)cc2)N=C(c2ccccc2)N1c1cc(C(F)(F)F)ccc1Cl tested on RXF 393 renal; state its GI50.
OUTPUT: 27.5 µM

INPUT: State the measured GI50 (RXF 393 renal) of O=C(Nc1ccc(Cl)cc1)c1cc(NCc2cc(O)ccc2O)ccc1O
OUTPUT: 2.24 µM

INPUT: // fetch GI50 for O=C(N/N=C/c1ccc([N+](=O)[O-])cc1)c1ccccc1Nc1ccnc(C(F)(F)F)c1 ; system: RXF 393 renal
OUTPUT: 15.4 µM

INPUT: # lookup: RXF 393 renal GI50, key = O=c1cc(-c2ccccc2)oc2c(O)c(O)ccc12
OUTPUT: 9.95 µM
